# subject.of.test: EPHB1 (UniProt P54762)
# Sequence (P54762 whole entry, looked up): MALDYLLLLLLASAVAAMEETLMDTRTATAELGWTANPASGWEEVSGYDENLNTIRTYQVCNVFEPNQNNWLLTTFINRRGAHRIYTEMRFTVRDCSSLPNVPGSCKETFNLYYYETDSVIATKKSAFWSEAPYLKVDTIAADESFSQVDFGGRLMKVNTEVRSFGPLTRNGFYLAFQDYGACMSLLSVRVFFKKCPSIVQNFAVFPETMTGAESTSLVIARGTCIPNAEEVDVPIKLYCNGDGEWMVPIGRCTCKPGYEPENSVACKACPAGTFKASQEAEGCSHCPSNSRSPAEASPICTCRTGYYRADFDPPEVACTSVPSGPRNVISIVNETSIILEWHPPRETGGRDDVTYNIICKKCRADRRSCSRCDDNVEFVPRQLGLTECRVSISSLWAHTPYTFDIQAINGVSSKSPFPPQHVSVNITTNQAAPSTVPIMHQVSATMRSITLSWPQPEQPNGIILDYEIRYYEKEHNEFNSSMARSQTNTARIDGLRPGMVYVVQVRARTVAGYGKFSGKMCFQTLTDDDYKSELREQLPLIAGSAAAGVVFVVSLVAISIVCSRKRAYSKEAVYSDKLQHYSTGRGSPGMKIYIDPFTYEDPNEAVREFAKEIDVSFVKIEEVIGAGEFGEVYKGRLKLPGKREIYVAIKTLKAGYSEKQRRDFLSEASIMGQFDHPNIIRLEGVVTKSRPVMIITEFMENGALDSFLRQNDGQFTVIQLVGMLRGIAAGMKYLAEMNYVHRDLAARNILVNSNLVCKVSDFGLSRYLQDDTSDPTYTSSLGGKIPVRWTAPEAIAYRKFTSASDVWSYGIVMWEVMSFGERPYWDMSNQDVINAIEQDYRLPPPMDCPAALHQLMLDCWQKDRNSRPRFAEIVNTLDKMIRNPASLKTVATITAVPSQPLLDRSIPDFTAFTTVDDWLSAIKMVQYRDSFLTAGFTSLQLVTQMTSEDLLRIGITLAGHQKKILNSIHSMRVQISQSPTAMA
# method.notes: phosphorylation enrichment, bacterial display (enrichment ratio); higher = better substrate or ligand; peptides without Tyr show the background;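 also: 11-residue human phosphosite peptides and single-mutation variants displayed on the E. coli surface, counted by deep sequencing, each peptide's frequency after selection divided by its frequency in the unselected input library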;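 also: frequency after pTyr selection over input frequency; kinase dosed for 20-30% of maximal phosphorylation in three min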
Param threshold (0.5) applies to phosphorylation enrichment; output Yes when value >= threshold, No when value < threshold.

// known answers, use as guide
Q) Please indicate if the recorded phosphorylation enrichment for YRRITYYNWRH [PDE6B_Y556_H557Y] meets or exceeds 0.5.
A) No

Q) Please indicate if the recorded phosphorylation enrichment for EGDGVYTLNNE [HP_Y125] meets or exceeds 0.5.
A) Yes

Q) Please indicate if the recorded phosphorylation enrichment for PGGNIYISPLK [RB1_Y805] meets or exceeds 0.5.
A) No

Q) Please indicate if the recorded phosphorylation enrichment for GVMLLYYGRYN [ADGRD1_Y85_T82M] meets or exceeds 0.5.
A) Yes

Others:
Q) Please indicate if the recorded phosphorylation enrichment for VGTKRYMASEV [ACVRL1_Y375_P378S] meets or exceeds 0.5.
A) No

Q) Please indicate if the recorded phosphorylation enrichment for MKDLTYSSLCF [ALOX5_Y446_A447S] meets or exceeds 0.5.
A) Yes

Q) Please indicate if the recorded phosphorylation enrichment for LGRKLYSIATP [ABHD12_Y345_A349T] meets or exceeds 0.5.
A) Yes

Q) Please indicate if the recorded phosphorylation enrichment for DLKFHYDNTAG [KDR_Y1214_P1210L] meets or exceeds 0.5.
A) Yes

Q) Please indicate if the recorded phosphorylation enrichment for MFVKSYTIHFS [F5_Y2153_YF] meets or exceeds 0.5.
A) Yes

Q) Please indicate if the recorded phosphorylation enrichment for CVVVPYEPPEV [TP53_Y220_S215C] meets or exceeds 0.5.
A) Yes

Q) Please indicate if the recorded phosphorylation enrichment for RRNEEYCLLDS [ITK_Y198] meets or exceeds 0.5.
A) Yes

Q) Please indicate if the recorded phosphorylation enrichment for MARDIYQASYY [LTK_Y672_R673Q] meets or exceeds 0.5.
A) Yes

Q) Please indicate if the recorded phosphorylation enrichment for KKKKQYKGKFL [CASK_Y708_D710G_YF] meets or exceeds 0.5.
A) No

Q) Please indicate if the recorded phosphorylation enrichment for KLMTEYKKRKQ [ARFGEF3_Y2029] meets or exceeds 0.5.
A) No

Q) Please indicate if the recorded phosphorylation enrichment for DTDSSYCIPTA [GAB1_Y373] meets or exceeds 0.5.
A) Yes

Q) Please indicate if the recorded phosphorylation enrichment for FSNPAYFVLEG [INPPL1_Y986_N982S_YF] meets or exceeds 0.5.
A) Yes

Q) Please indicate if the recorded phosphorylation enrichment for ARIVDYNIIGW [MYH7_Y588_G584R] meets or exceeds 0.5.
A) Yes

Q) Please indicate if the recorded phosphorylation enrichment for SEVVPYEPPEV [TP53_Y220_V216E] meets or exceeds 0.5.
A) Yes

Q) Please indicate if the recorded phosphorylation enrichment for DDHFTYSRYPW [LY75_Y888] meets or exceeds 0.5.
A) Yes

Q) Please indicate if the recorded phosphorylation enrichment for SFMVRYNQPRV [GRIN2D_Y736_YF] meets or exceeds 0.5.
A) Yes

Where these numbers come from: the supplement of paper PMC10065799
